# Test system: T. cruzi amastigotes
# METHOD_NOTES: Amastigote growth inhibition assay (T. cruzi-LacZ, CPRG readout)
# Type: cell-based
# APPLIED_CONDITIONS: Trypanosoma cruzi, LLC-MK2, amastigotes in LLCMK2 cells, 72 h, 37°C, three independent assays
Hi there, I'd appreciate the recorded IC50 for every entry that follows.
# unit: nM | format: bare number

Query (molecule): Cc1cc(N(C)C)cc2[s+]c3cc(N(C)C)cc(C)c3nc12 [DMMB, 1,9–Dimethyl Methylene Blue] ; field requested: IC50
80

Record: Cc1cc2nc3ccc(N(C)C)cc3[s+]c2cc1N [TBO, Toluidine Blue O]
270

For O=C(Cn1ccnc1[N+](=O)[O-])NCc1ccccc1 [BZ, Benznidazole] then?
3410

And CN(C)c1ccc2nc3ccc(=[N+](C)C)cc-3sc2c1 [MB, Methylene Blue] ?
440

Now this one: CCNc1cc2[s+]c3cc(NCC)c(C)cc3nc2cc1C [NMB, New Methylene Blue]
90
